PROCEDURE DETAILS: Selectivity index, ratio of cytotoxicity against pig LLC-PK1 cells to IC50 for Cryptococcus neoformans ATCC 90113
Type: toxicity, cell-based
CONDITIONS USED: read-out: Selectivity Index
ASSAY METRIC: selectivity ratio

SMI | ASSAY METRIC | READOUT VALUE
COc1ccc(-c2nc(C[C@H](NC(=O)OC(C)(C)C)C(=O)N[C@@H](CCCNC(=N)N)C(=O)NCc3ccccc3)c[nH]2)cc1 | selectivity ratio | > 1.7
CC(C)(C)OC(=O)N[C@@H](Cc1c[nH]c(-c2ccc(-c3ccccc3)cc2)n1)C(=O)N[C@@H](CCCNC(=N)N)C(=O)NCc1ccccc1 | selectivity ratio | > 9.2
N=C(N)NCCC[C@H](NC(=O)[C@@H](N)Cc1c[nH]c(-c2ccc(-c3ccccc3)cc2)n1)C(=O)NCc1ccccc1 | selectivity ratio | > 50

====

PROCEDURE DETAILS: Selectivity index, ratio of cytotoxicity against african green monkey Vero cells to IC50 for Cryptococcus neoformans ATCC 90113
Assay type: toxicity, cell-based
CONDITIONS USED: read-out: Selectivity Index
ASSAY METRIC: selectivity ratio

SMI | READOUT VALUE
COC(=O)[C@H](CCCNC(=N)N)NC(=O)[C@H](Cc1c[nH]c(-c2cccc3ccccc23)n1)NC(=O)OC(C)(C)C | > 8
N=C(N)NCCC[C@H](NC(=O)[C@@H](N)Cc1c[nH]c(-c2cccc3ccccc23)n1)C(=O)NCc1ccccc1 | > 16.1
COC(=O)[C@H](Cc1c[nH]c(-c2ccccc2)n1)NC(=O)[C@@H](N)Cc1c[nH]c2ccccc12 | > 1.3
COc1ccc(-c2nc(C[C@H](NC(=O)OC(C)(C)C)C(=O)N[C@@H](CCCNC(=N)N)C(=O)NCc3ccccc3)c[nH]2)cc1 | > 1.7
Cc1ccc(-c2nc(C[C@H](N)C(=O)N[C@@H](CCCNC(=N)N)C(=O)NCc3ccccc3)c[nH]2)cc1 | > 4.7
COC(=O)[C@H](CCCNC(=N)N)NC(=O)[C@@H](N)Cc1c[nH]c(-c2cccc3ccccc23)n1 | > 7.3
N=C(N)NCCC[C@H](NC(=O)[C@@H](N)Cc1c[nH]c(-c2ccc(-c3ccccc3)cc2)n1)C(=O)NCc1ccccc1 | > 50

Each recorded value in this set is attributed to ChEMBL document CHEMBL3132745.
